Reference source for all entries: the CombiSolv-Exp solvation set (Vermeire and Green 2021)

experiment: solvent given as SMILES; conditions: in C1CCOC1
OUTCOME_MEASURE: solvation free energy, 298 K (kcal/mol)
State just the number; it will be interpreted in kcal/mol.

Lab book: solvation free energy, 298 K of `CCC=O` noted as -3.82

Lab book: solvation free energy, 298 K of `O=c1c2ccccc2sc2ccccc12` noted as -13.2

Lab book: solvation free energy, 298 K of `O=C(O)c1ccc([N+](=O)[O-])cc1` noted as -13.3

Lab book: solvation free energy, 298 K of `c1cc2c3c(cccc3c1)CC2` noted as -9.86

Lab book: solvation free energy, 298 K of `C=C` noted as -0.82

Lab book: solvation free energy, 298 K of `Clc1ccccc1` noted as -6.04
